Ref: ChEMBL document CHEMBL3085654

Assay: Half life in PBS buffer at 10^-5 M at pH 7.4 by HPLC analysis
Assay type: ADME

entry smiles | endpoint unit | half-life at 10 µM
CC(=O)N[C@@H](Cc1ccc(O)cc1)C(=O)N(C)/N=N/c1ccc(C(N)=O)cc1 | h | 40.6
CC(=O)N[C@@H](Cc1ccc(O)cc1)C(=O)N(C)/N=N/c1ccc(C#N)cc1 | h | 42.7
CCOC(=O)c1ccc(/N=N/N(C)C(=O)[C@H](Cc2ccc(O)cc2)NC(C)=O)cc1 | h | 70.3
CC(=O)c1ccc(/N=N/N(C)C(=O)[C@H](Cc2ccc(O)cc2)NC(=O)OC(C)(C)C)cc1 | h | 72.2
CN(/N=N/c1ccc(C#N)cc1)C(=O)[C@H](Cc1ccc(O)cc1)NC(=O)OC(C)(C)C | h | 48.5
COC(=O)c1ccc(/N=N/N(C)C(=O)[C@H](Cc2ccc(O)cc2)NC(C)=O)cc1 | h | 75.1
CC(=O)N[C@@H](Cc1ccc(O)cc1)C(=O)N(C)/N=N/c1ccc(C(C)=O)cc1 | h | 56.6
